- Test system: HOP-62 NSCLC
- METHOD_NOTES: NCI-60 one-dose screen, 48 h (100 = growth as untreated, 0 = no growth, -100 = all killed)
- EXPERIMENTAL_PARAMETERS: 10 µM unless noted
About 83,000 compounds went through this panel and 20% of them were active in at least one assay; those are over-represented in the sample as a whole.
READOUT_NAME: growth (%)

> print(dat)
                                   molecule  study.system  value.unit  reported.result
1  NC(N)=Nc1ccc(Oc2cccc(Nc3ccc(Cl)cc3)c2)cn1  HOP-62 NSCLC           %            -21.3
2  CC(c1ccccc1)N1CSc2nc3ncncc3n2C1 (stereo not given)  HOP-62 NSCLC           %             26.9
3  N#Cc1c(NC(=O)c2cccc(C(F)(F)F)c2F)sc2c1CCC(=O)C2  HOP-62 NSCLC           %             19.4
4  CC(=O)N(C)C1CCc2c(sc(NC(=O)c3ccc(C(C)(C)C)cc3)c2C(N)=O)C1 (stereo not given)  HOP-62 NSCLC           %             34.7
5  O=C(Cn1cc[n+](CC(=O)c2ccc(-c3ccccc3)cc2)c1)Nc1cccc2cccnc12  HOP-62 NSCLC           %             88.4
